Recorded values, source patent US20050074834A1.

- Tested on: Betta splendens erythrophores
- Format: cell-based
readout: Morphology Effect: Aggregation

molecule | measured.target | endpoint.result
C/C=C(/C)C(=O)O[C@H]1C(C)=C2[C@H]([C@@H]1OC(=O)CCCCCCC)[C@@](C)(OC(C)=O)C[C@H](OC(=O)CCC)[C@@]1(O)[C@H]2OC(=O)[C@@]1(C)O [Thapsigargin] | Betta splendens erythrophores | Yes
C[C@H](CCC(=O)O)C[C@H](C)C[C@H](C)C(=O)/C=C(\O)[C@H](C)C[C@H](C)C/C=C/[C@@H](C)[C@@H](O)[C@@H](C)[C@@H](O)C[C@@H]1CC[C@@](C)([C@H]2CC[C@@](C)([C@@H](C)O)O2)O1 [Ionomycin] | Betta splendens erythrophores | Yes
CC(=O)OCOC(=O)CN(CC(=O)OCOC(C)=O)c1ccccc1OCCOc1ccccc1N(CC(=O)OCOC(C)=O)CC(=O)OCOC(C)=O [BAPTA/AM] | Betta splendens erythrophores | No
COc1ccc(CCN(C)CCCC(C#N)(c2ccc(OC)c(OC)c2)C(C)C)cc1OC (centres unmarked) [Verapamil] | Betta splendens erythrophores | No

Let's switch to this molecule now.
The recorded Morphology Effect: Aggregation for CNc1ccc2oc(C[C@H]3O[C@@]4(CC[C@H]3C)O[C@H]([C@H](C)C(=O)c3ccc[nH]3)[C@H](C)C[C@H]4C)nc2c1C(=O)O [A23187] is No
